Data provenance is patent US20220064327A1.

- Measurement target: T1, human factor IX (human, UniProt P00740 47-461, 12 glutamic acid residues of the GLA domain are post-translationally γ-carboxylated)
- T1 construct: Zymogen used as analyte in SPR, reconstituted at 1 mg/ml; also called FIX; Human FIX (MW ~55 KDa)
- T1 sequence (P00740 47-461 limits assumed): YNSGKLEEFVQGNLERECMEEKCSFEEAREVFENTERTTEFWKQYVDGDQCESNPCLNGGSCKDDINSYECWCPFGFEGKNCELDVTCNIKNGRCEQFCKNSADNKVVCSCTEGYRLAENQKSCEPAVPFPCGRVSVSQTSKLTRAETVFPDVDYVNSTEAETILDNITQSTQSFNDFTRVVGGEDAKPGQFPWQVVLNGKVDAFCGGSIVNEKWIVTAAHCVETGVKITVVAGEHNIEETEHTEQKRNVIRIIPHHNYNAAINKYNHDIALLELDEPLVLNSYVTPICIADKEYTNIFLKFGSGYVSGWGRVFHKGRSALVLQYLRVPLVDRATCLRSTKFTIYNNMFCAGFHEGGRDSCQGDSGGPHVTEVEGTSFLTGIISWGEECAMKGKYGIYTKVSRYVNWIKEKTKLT
- Protocol: SPR, IgG captured on anti-human IgG Fc, human FIX as analyte
Form field: kon (one value per entry).
Quick reminder: number only, in M⁻¹ s⁻¹, skip the unit.

[
  {
    "Binder": "NINA-0440.0128 (antibody, V domains shown) VH: EVQLVESGGGFVQPGGSLRLSCAVSGFTFNSYWMSWVRQAPGKGLEWVANINQDGSEKFYVASVKGRFTMSRDNAKKSVYVQMNSLRAEDTAVYYCAREGYSSNSYYGMDVWGQGTTVTVSS VL: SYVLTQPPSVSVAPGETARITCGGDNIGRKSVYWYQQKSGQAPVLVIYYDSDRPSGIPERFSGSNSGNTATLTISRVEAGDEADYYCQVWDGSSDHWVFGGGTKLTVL",
    "Unit string": "M⁻¹ s⁻¹",
    "kon": 185000
  }
]

Fill blank: measured kon of the binder NINA-0445.0128 (antibody, V domains shown) VH: EVQLVESGGGFVQPGGSLRLSCAVSGFTFNSYWMSWVRQAPGKGLEWVANINQDGSEKFYVASVKGRFTMSRDNAKKSVYVQMNSLRAEDTAVYYCAREGYSSVSYYGMDVWGQGTTVTVSS VL: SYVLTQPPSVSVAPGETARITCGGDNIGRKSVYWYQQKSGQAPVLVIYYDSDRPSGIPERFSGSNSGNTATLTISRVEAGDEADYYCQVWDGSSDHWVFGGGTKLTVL is ____. 204000

Fill blank: measured kon of the binder NINA-0456.0128 (antibody, V domains shown) VH: EVQLVESGGGFVQPGGSLRLSCAVSGFTFNSYWMSWVRQAPGKGLEWVANINQDGSEKFYVASVKGRFTMSRDNAKKSVYVQMNSLRAEDTAVYYCAREGYSSSLYYGMDVWGQGTTVTVSS VL: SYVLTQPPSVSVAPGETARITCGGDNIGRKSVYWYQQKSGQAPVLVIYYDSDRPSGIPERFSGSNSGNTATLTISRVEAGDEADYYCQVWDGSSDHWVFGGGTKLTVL is ____. 151000
